- Experimental Target: delta-type opioid receptor (Rattus norvegicus, UniProt P33533)
- Sequence (P33533 whole entry): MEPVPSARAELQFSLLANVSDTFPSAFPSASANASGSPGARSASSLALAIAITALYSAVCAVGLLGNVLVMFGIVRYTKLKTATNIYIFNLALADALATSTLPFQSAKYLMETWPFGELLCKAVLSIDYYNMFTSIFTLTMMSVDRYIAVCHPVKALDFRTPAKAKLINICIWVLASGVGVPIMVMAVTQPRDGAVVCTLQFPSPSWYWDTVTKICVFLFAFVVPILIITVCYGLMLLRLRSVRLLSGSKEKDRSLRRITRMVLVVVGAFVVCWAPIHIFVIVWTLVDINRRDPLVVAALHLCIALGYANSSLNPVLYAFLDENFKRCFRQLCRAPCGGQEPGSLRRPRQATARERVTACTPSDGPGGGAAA
- Measurement Protocol: inhibition of specific [^3 H] DADLE binding to rat forebrain membranes
- Condition Info: read-out: Ki, inhibition of specific [^3 H] DADLE binding; Tables 1 and 2; rat brain membranes; MEAN±S.E.M.
Experimental Readout: pKi
To interpret pKi, take it as minus log10 of a concentration measured in moles per litre.

Examples with their reported pKi follow.
# Compound, Experimental Readout, Result Value
data = [
    ("Oc1ccc2c3c1O[C@H]1C(=NOCc4ccccc4)CC[C@@]4(O)[C@@H](C2)N(CC2CC2)CC[C@]314", "pKi", 9.15),
    ("CN1CC[C@]23c4c5ccc(O)c4O[C@H]2C(=NOCc2ccccc2)CC[C@@]3(O)[C@H]1C5", "pKi", 8.55),
]

Here is another compound to look at.
Summary line: `CN1CC[C@]23c4c5ccc(O)c4O[C@H]2C(=NOc2ccccc2)CC[C@@]3(O)[C@H]1C5` , delta-type opioid receptor (Rattus norvegicus, UniProt P33533), reported pKi = 9.04

----------
- Experimental Target: mu-type opioid receptor (Rattus norvegicus)
- Construct: using rat forebrain membranes; from tissue; host or cells: rat forebrain membranes
- Measurement Protocol: inhibition of specific [^3 H] DAGO binding to rat forebrain membranes
- Condition Info: Ki, inhibition of specific [^3 H] DAGO binding, Tables 1 and 2; rat brain membranes; MEAN±S.E.M.
- Procedure: The interaction of some of the novel compounds with mu and delta-type opioid receptors present in brain membranes was examined in vitro. […] DAGO (mu-type receptor) or [^3 H] DADLE (delta-type receptor) was determined using rat forebrain membranes. […] Values represent the MEAN±S.E.M. of the Ki(nM) for each compound to inhibit specific binding of the indicated ligand to rat brain membranes. […] N.D.=not determined […]
Experimental Readout: pKi
Formally, pKi is defined as -log10 of the concentration c, with c in mol/L.

Consider the worked cases shown below.
# Molecule, Experimental Target, Experimental Readout, Result Value
records = [
    ("CON=C1CC[C@@]2(O)[C@H]3Cc4ccc(O)c5c4[C@@]2(CCN3CC2CC2)[C@H]1O5 [Example X]", "mu-type opioid receptor (Rattus norvegicus)", "pKi", 9.18),
    ("Oc1ccc2c3c1O[C@H]1C(=NOc4ccccc4)CC[C@@]4(O)[C@@H](C2)N(CC2CC2)CC[C@]314 [Example XII]", "mu-type opioid receptor (Rattus norvegicus)", "pKi", 9.68),
    ("Oc1ccc2c3c1O[C@H]1C(=NOCc4ccccc4)CC[C@@]4(O)[C@@H](C2)N(CC2CC2)CC[C@]314 [Example XI]", "mu-type opioid receptor (Rattus norvegicus)", "pKi", 9.26),
]

GET /values?item= CN1CC[C@]23c4c5ccc(O)c4O[C@H]2C(=NOc2ccccc2)CC[C@@]3(O)[C@H]1C5 [Example IV] &system= mu-type opioid receptor (Rattus norvegicus) returns pKi: 9.08

// pKi (mu-type opioid receptor (Rattus norvegicus)) for CN1CC[C@]23c4c5ccc(O)c4O[C@H]2C(=NOCc2ccccc2)CC[C@@]3(O)[C@H]1C5 [Example III] = 8.80

Result for CON=C1CC[C@@]2(O)[C@H]3Cc4ccc(O)c5c4[C@@]2(CCN3C)[C@H]1O5 [Example II] , tested on mu-type opioid receptor (Rattus norvegicus), pKi: 9.01

----------
- Experimental Target: mu-type opioid receptor (Rattus norvegicus, UniProt P33535)
- Construct: using rat forebrain membranes; from tissue; host or cells: rat forebrain membranes
- Sequence (P33535 whole entry): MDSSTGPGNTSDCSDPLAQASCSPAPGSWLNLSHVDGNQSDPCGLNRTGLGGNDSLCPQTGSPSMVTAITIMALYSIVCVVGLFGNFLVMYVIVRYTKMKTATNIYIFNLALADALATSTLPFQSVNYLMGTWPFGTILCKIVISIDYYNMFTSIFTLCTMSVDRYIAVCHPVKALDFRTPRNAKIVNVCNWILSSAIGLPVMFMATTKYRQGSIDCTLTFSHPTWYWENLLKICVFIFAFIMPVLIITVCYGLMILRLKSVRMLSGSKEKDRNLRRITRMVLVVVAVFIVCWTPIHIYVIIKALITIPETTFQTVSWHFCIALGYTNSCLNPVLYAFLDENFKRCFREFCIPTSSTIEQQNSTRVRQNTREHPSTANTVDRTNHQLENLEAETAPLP
- Measurement Protocol: inhibition of specific [^3 H] DAGO binding to rat forebrain membranes
- Condition Info: (Ki) nM, μ receptor (Rat Forebrain), Table 6; [^3 H] DAGO, mean of three experiments
Experimental Readout: Ki (nM)
Unit nM implied. Number only.

Worked examples follow.
# Molecule, Experimental Readout, Measurement Units, Result Value
data = [
    ("Oc1ccc2c3c1O[C@H]1C(=NOc4ccc(C(F)(F)F)cc4)CC[C@@]4(O)[C@@H](C2)N(CC2CC2)CC[C@]314", "Ki", "nM", 26.4),
    ("Oc1ccc2c3c1O[C@H]1C(=NOc4ccccc4)CC[C@@]4(O)[C@@H](C2)N(CC2CC2)CC[C@]314", "Ki", "nM", 0.3),
    ("ON=C1CC[C@@]2(O)[C@H]3Cc4ccc(O)c5c4[C@@]2(CCN3CC2CC2)[C@H]1O5", "Ki", "nM", 0.24),
    ("O=C1c2ccccc2C(=O)N1Cc1ccc(ON=C2CC[C@@]3(O)[C@H]4Cc5ccc(O)c6c5[C@@]3(CCN4CC3CC3)[C@H]2O6)cc1", "Ki", "nM", 7.35),
    ("C=C1CC[C@@]2(O)[C@H]3Cc4ccc(O)c5c4[C@@]2(CCN3CC2CC2)[C@H]1O5 [Nalmefene, reference compound]", "Ki", "nM", 0.64),
]

// sample `Oc1ccc2c3c1O[C@H]1C(=NOC45CC6CC(CC(C6)C4)C5)CC[C@@]4(O)[C@@H](C2)N(CC2CC2)CC[C@]314` , its Ki was 5.39

Ki reported for this molecule `NCc1ccc(ON=C2CC[C@@]3(O)[C@H]4Cc5ccc(O)c6c5[C@@]3(CCN4CC3CC3)[C@H]2O6)cc1` : 0.34

Query `Cc1cccc(ON=C2CC[C@@]3(O)[C@H]4Cc5ccc(O)c6c5[C@@]3(CCN4CC3CC3)[C@H]2O6)c1C` yields Ki of 1.19

Sure, the documented Ki for `CC(C)(C)ON=C1CC[C@@]2(O)[C@H]3Cc4ccc(O)c5c4[C@@]2(CCN3CC2CC2)[C@H]1O5` is 1.01

----------
- Experimental Target: delta-type opioid receptor (Rattus norvegicus, UniProt P33533)
- Measurement Protocol: inhibition of specific [^3 H] DADLE binding to rat forebrain membranes
- Condition Info: read-out: Ki, inhibition of specific [^3 H] DADLE binding; Tables 1 and 2; rat brain membranes; MEAN±S.E.M.
Experimental Readout: Ki (nM)
State just the number; it will be interpreted in nM.

See these solved cases before continuing.
# Compound, Measurement Units, Ki
rows = [
    ("CON=C1CC[C@@]2(O)[C@H]3Cc4ccc(O)c5c4[C@@]2(CCN3C)[C@H]1O5", "nM", 3.44),
    ("Oc1ccc2c3c1O[C@H]1C(=NOc4ccccc4)CC[C@@]4(O)[C@@H](C2)N(CC2CC2)CC[C@]314", "nM", 1.7),
]

Moving on to the next compound.
Measured Ki of `CON=C1CC[C@@]2(O)[C@H]3Cc4ccc(O)c5c4[C@@]2(CCN3CC2CC2)[C@H]1O5` : 1.8

----------
- Experimental Target: mu-type opioid receptor (Rattus norvegicus, UniProt P33535)
- Construct: using rat forebrain membranes; from tissue; host or cells: rat forebrain membranes
- Measurement Protocol: inhibition of specific [^3 H] DAGO binding to rat forebrain membranes
- Condition Info: (Ki) nM, μ receptor (Rat Forebrain), Table 6; [^3 H] DAGO, mean of three experiments
- Description: The interaction of some of the novel compounds with mu and delta-type opioid receptors present in brain membranes was examined in vitro. […] DAGO (mu-type receptor) or [^3 H] DADLE (delta-type receptor) was determined using rat forebrain membranes. […] Values represent the MEAN±S.E.M. of the Ki(nM) for each compound to inhibit specific binding of the indicated ligand to rat brain membranes. […] N.D.=not determined […]
Experimental Readout: Ki (nM)
Respond with the bare value in nM.

# example entries with known answers
# Compound, Experimental Target, Ki / nM
data = [
    ("Oc1ccc2c3c1O[C@H]1C(=NOCc4ccccc4)CC[C@@]4(O)[C@@H](C2)N(CC2CC2)CC[C@]314", "mu-type opioid receptor (Rattus norvegicus, UniProt P33535)", 0.55),
    ("Oc1ccc2c3c1O[C@H]1C(=NOC4CCCCC4)CC[C@@]4(O)[C@@H](C2)N(CC2CC2)CC[C@]314", "mu-type opioid receptor (Rattus norvegicus, UniProt P33535)", 1.1),
]

Briefly, Ki measured for `N#Cc1ccc(ON=C2CC[C@@]3(O)[C@H]4Cc5ccc(O)c6c5[C@@]3(CCN4CC3CC3)[C@H]2O6)cc1` : 2.07

Entry `Oc1ccc2c3c1O[C@H]1C(=NOC4CCCC4)CC[C@@]4(O)[C@@H](C2)N(CC2CC2)CC[C@]314` , Ki reported as 0.52
